Recorded melting point, one value per entry.
// note: answer is a bare numeric in °C

N#Cc1cc(C#N)cc(Oc2nccc(Oc3cc(Cl)cc(Cl)c3)n2)c1 [Compound 83] ... 156
N#Cc1cc(C#N)cc(Oc2cccc(O)c2)c1 [Compound 49, 5-(3-hydroxyphenoxy)isophthalonitrile] ... 143

Proceeding to the next molecule to report its melting point.
Enquiry: Using the record for N#Cc1cc(C#N)cc(Oc2ccnc(Oc3cc(Cl)cc(Cl)c3)n2)c1 [Compound 84] , report its melting point.
Return: 196
